system: Saccharomyces cerevisiae PS128 hsf1 delta, HSF1(1-493) fusion; experiment: growth estimate (transactivation domain function in HSF1 fusion, heat-shock survival) (a.u. (slope of normalised read count over time)); higher = stronger growth at 37°C, i.e. more transactivation activity; conditions: library: design library
MEASURED_METRIC: growth estimate
Give the figure by itself; no unit, no explanation.

Request: Tell us which growth estimate value is on record for PEFPGIELQPLQELQALLQQ
Result: -0.243

Request: Return the recorded growth estimate value; entry: DELSWIIELLEKGG
Result: 0.213

Request: Give me measured growth estimate, please, for this sequence: DELSWIIELLEKDR
Result: 0.276

Request: Provide growth estimate value for the following sequence: PFDYDFLFGNDFA
Result: 2.14

Request: Please supply the value of reported growth estimate for the item MLSSKGFSVDTSALLDLFSP
Result: -0.115

Request: Return value of growth estimate for input EDDDEFKLWDSML , no commentary.
Result: 0.0998

Request: Recall and state the measured growth estimate for GADDIWEELLSEDL .
Result: 1.28

Request: Answer with reported growth estimate of EDLYSILWSDVP
Result: 0.204

Request: Indicate the recorded growth estimate value for this sequence: QQNGKIAQLWDFN
Result: -0.237

Request: Please indicate growth estimate recorded for RFDLDMLGDFDLDMLG
Result: 0.634

Request: Using the record for MLSSHGFSVDTSALLDLKSP , state its measured growth estimate.
Result: -0.096

Request: Provide growth estimate value for the following sequence: KFDYDFLFGNDFA
Result: 1.06

Request: Return reported growth estimate. Input sequence: EFNDLLDLDFILSR
Result: 0.761

Request: Return growth estimate (reported value) for this sequence: PFPDTQDDFLKWARSEEAQ
Result: 0.0578

Request: Supply reported growth estimate belonging to this sequence: DELSWIIALLEKDG
Result: -0.104

Request: Using known records, supply growth estimate for EDLYSILWSDVA
Result: 0.126
